Test: binders of probe aFSTL3 on microarray, primary screen, stem cell growth factor project, biochemical, small-molecule microarray, fluorescence 635/667 (AID 1064);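 also: measures binding of the biotinylated anti-FSTL3 antibody to printed compounds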
Conditions: higher = more signal
Recorded measurements of composite z-score, one per entry
The reply should be a number, written without any unit.

COCCOC(=O)N1C(=O)[C@@]2(c3cc(C#CC4=CCCCC4)ccc31)[C@H](C(=O)N1CCc3cc(OC)c(OC)cc3C1)[C@H]1C(=O)O[C@H](c3ccccc3)[C@H](c3ccccc3)N1[C@@H]2c1ccc(OCCO)cc1 | -0.137
COCC(=C=CC[C@@H](O)c1ccccc1OCCO)C[C@@H](O)c1cc(Cl)cc(Cl)c1O | -0.685
CC1CC/C=C\[C@H]2OC34C=CCN(Cn5nnc6ccccc65)C(=O)[C@H]3N(C(CO)C(C)C)C(=O)[C@@H]4C2C(=O)O1 (stereo partly drawn) | 0.0351
C=CCOC(=O)[C@@H]1[C@H]2C(=O)O[C@H](c3ccccc3)[C@H](c3ccccc3)N2[C@H](c2ccc(OCCOC(=O)[C@@H]3C[C@@H]4C(=O)N[C@@H](CCCC[N+](C)(C)C)C(=O)N4[C@@H]3c3cccc(OCCO)c3)cc2)[C@@]12C(=O)Nc1ccc(I)cc12 | 0.443
CN(C)CCCNC(=O)[C@@]1(c2ccc([N+](=O)[O-])cc2)CC(=O)N(C2CCCCC2)[C@@H]1c1ccc(CO)cc1I | 0.284

Give the value of composite z-score reported for the following: `O=C1C[C@]2(c3ccc([N+](=O)[O-])cc3)C(=O)N(CCN3CCOCC3)c3cc(CO)ccc3[C@H]2N1C1CCCCC1` 0.526

Specify measured composite z-score for `CCCN1C(=O)[C@]2(CCS(=O)(=O)c3ccccc3)N=C(c3ccc(OCCCO)cc3)O[C@@H]2c2ccccc21` . 0.375

Read off the recorded composite z-score for `COC(=O)[C@@]1(Cc2ccc(OC)cc2)[C@H]2c3cc(C(=O)N4CCCC4)n(Cc4ccccc4)c3C[C@H]2CN1C(=O)c1ccccc1` 2.67

Read off the recorded composite z-score for CC(C)c1ccc(NN2C(C(O)c3cc(C(F)(F)F)cc(C(F)(F)F)c3)C=CC3C(=O)N(c4ccccc4)C(=O)C32)cc1 (stereo not drawn) 0.43
